Each item that follows carries a reported Kd.
Target: T1, human IL-8 (human, UniProt P10145 23-99, limits assumed)
T1 construct: also called hIL-8; hIL8
T1 sequence (P10145 23-99 limits assumed): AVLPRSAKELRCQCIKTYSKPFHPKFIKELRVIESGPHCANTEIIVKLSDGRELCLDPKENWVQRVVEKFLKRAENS
Assay: SPR Biacore T200, Protein A/G capture, pH 7.4, 40C;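 also: antibodies captured via Protein A/G, which was amine-coupled to a CM4 sensor chip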
State the answer as a number, implicitly in nM.

H1029/L0442 (antibody, human IgG1, kappa, name in Kabat numbering, V domains shown, L442 = L395 + S31E) VH: QVQLVESGGGLVQPGGSLRLSCAASGFTFDKYYLSWVRQAPGKGLEWVGLIRNKDNHHTPEYSASVKGRFTISRDDSKNSLYLTMSDLKTEDTAVYYCARENHRYDVELAYWGQGTLVTVSS VL: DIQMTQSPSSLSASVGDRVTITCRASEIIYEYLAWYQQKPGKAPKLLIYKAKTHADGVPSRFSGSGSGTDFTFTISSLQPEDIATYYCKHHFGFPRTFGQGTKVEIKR = 0.14
H1022/L0442 (antibody, human IgG1, kappa, name in Kabat numbering, V domains shown, L442 = L395 + S31E) VH: QVQLVESGGGLVQPGGSLRLSCAASGFTFSDYYLSWVRQAPGKGLEWVGLIRNKDNHHHPEYSASVKGRFTISRDDSKNSLYLTMSDLKTEDTAVYYCARENHRYDVELAYWGQGTLVTVSS VL: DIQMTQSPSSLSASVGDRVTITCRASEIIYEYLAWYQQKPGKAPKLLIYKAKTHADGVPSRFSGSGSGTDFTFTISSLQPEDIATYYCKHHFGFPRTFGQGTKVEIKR = 0.36

Next up:
Query: Look up Kd for this binder: H1009/L0442 (antibody, human IgG1, kappa, name in Kabat numbering, V domains shown, L442 = L395 + S31E) VH: QVQLVESGGGLVQPGGSLRLSCAASGFTFSDYYLSWVRQAPGKGLEWVGLIRNKDNYHTPEYSASVKGRFTISRDDSKNSLYLTMSDLKTEDTAVYYCARENHRYDVELAYWGQGTLVTVSS VL: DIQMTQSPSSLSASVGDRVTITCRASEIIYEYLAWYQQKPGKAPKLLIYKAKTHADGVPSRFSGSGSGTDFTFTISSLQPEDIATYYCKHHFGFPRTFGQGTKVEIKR
Result: 0.11
